# System: zebrafish embryos
# Protocol description: Whole-mount in situ hybridization with myoD riboprobe in chemical-treated zebrafish embryos
# Assay type: in vivo
# Conditions: embryos treated at the sphere stage, assayed at the 6-somite stage, CHB library chemicals diluted 300-fold, compared with DMSO
Structures can show the parent of a compound that is named as a salt.
Parameter: myoD expression

Worked examples, 4 molecules total:
* CC(C)(C)c1cc(/C=C(\C#N)C(N)=S)cc(C(C)(C)C)c1O [Tyrphostin AG 879] | Toxic
* CO[C@H]1C[C@@H]2CC[C@@H](C)[C@@](O)(O2)C(=O)C(=O)N2CCCC[C@H]2C(=O)O[C@H]([C@H](C)C[C@@H]2CC[C@@H](O)[C@H](OC)C2)CC(=O)[C@H](C)/C=C(\C)[C@@H](O)[C@@H](OC)C(=O)[C@H](C)C[C@H](C)/C=C/C=C/C=C/1C [Rapamycin] | Level 2
* COCC(=O)O[C@]1(CCN(C)CCCc2nc3ccccc3[nH]2)CCc2cc(F)ccc2[C@@H]1C(C)C.Cl.Cl [Miberfradil dihydrochloride] | Level 2
* O=c1cc(N2CCOCC2)oc2c(-c3ccccc3)cccc12 [LY-294,002 hydrochloride] | Level 2

Would you kindly look at the next entry?
Report measured myoD expression; entry is C=C1C(=O)O[C@@H]2C[C@@H](C)[C@@H]3C=CC(=O)[C@@]3(C)[C@@H](O)[C@H]12 [Helenalin] Toxic

----------
# System: zebrafish blastomere cells
# Protocol description: High-throughput image-based chemical screen in myf5-GFP; mylz2-mCherry zebrafish blastomere cell culture with bFGF
# Conditions: medium supplemented with bFGF, 384-well, Celigo cytometer
Parameter: change of myf5-GFP and mylz2-mCherry signals (hit category)

• Clc1cnc(Oc2ccc(Oc3ncc(Cl)cc3Cl)cc2)c(Cl)c1 [TCPOBOP] = only myf5-GFP expression
• CCCNC(=O)[C@H]1O[C@@H]1C(=O)N[C@H](C(=O)N1CCC[C@H]1C(=O)OC)[C@@H](C)CC [CA-074-Me] = only myf5-GFP expression

----------
# Tested on: zebrafish embryos
# Protocol description: Whole-mount in situ hybridization with myoD riboprobe in chemical-treated zebrafish embryos
# Format: in vivo
# Design: key: Level 1: decreased myoD staining at different levels, which are indicated in FIG. 9A; Level 2: decreased myoD staining at different levels, which are indicated in FIG. 9A; Level 3: decreased myoD staining at different levels, which are indicated in FIG. 9A; Level 4: decreased myoD staining at different levels, which are indicated in FIG. 9A
# Conditions: embryos treated at the sphere stage, assayed at the 6-somite stage, CHB library chemicals diluted 300-fold, compared with DMSO
Parameter: myoD expression

Below, 5 molecules whose answers are already recorded.
* N#C/C(=C\c1c[nH]c2ccccc12)C(=O)c1ccc(O)c(O)c1 | Level 1
* Cl.NCCNC(=O)c1ncsc1-c1cccc(F)c1 [Ro 41-1049 hydrochloride] | Level 4
* CCCC[N+]1(C)[C@@H]2C[C@@H](OC(=O)[C@H](CO)c3ccccc3)C[C@H]1[C@@H]1O[C@@H]12.[Br-] (single isomer, unassigned; (-)) [(-)-Scopolamine, n-Butyl-, bromide] | Level 1
* CC1=C(/C=C/C(C)=C/C=C/C(C)=C/C(=O)O)C(C)(C)CCC1 [ATRA, all-trans retinoic acid] | Level 4
* CN(Cc1cnc2nc(N)nc(N)c2n1)c1ccc(C(=O)N[C@@H](CCC(=O)O)C(=O)O)cc1 [Methotrexate] | No change

Output myoD expression of Cl.Oc1cc2c(c(Cl)c1O)CCNCC2c1ccccc1 (racemic) [(±)-6-Chloro-PB hydrochloride] Level 1

Kindly indicate its recorded myoD expression. Item: "NC(=O)c1ccc(-c2nc(-c3ccccn3)c(-c3ccc4c(c3)OCO4)[nH]2)cc1" No change
